Attribution: PubChem BioAssay AID1159580

Assay Notes: chemical genetic growth profiling, strain panel (AID 1159580);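 also: tested at 20 µM; growth read once vehicle control cultures reached saturation at 30 °C; lower values mean less growth of the strain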
Settings: S. cerevisiae deletion strains, growth OD, locus YKL009W, strain mrt4
About 2,000 (36%) of roughly 5,500 compounds were called active. Not shown: some 18% with an inconclusive outcome. Rule as the data show it: active = normalized growth mostly below about 0.91 (no sharp cut-off); inconclusive = no clear call, values can overlap the other calls; inactive = mostly above about 0.92. Some of the results follow.
Classes used: active, inactive

>  <Molecule>
C=C1CCC2C(CC2(C)C)C(=O)CCC1O (stereo not given)

>  <Qualitative Label>
inactive

$$$$
>  <Molecule>
COc1cc(-c2coc3cc(OC)c(OC)c(OC)c3c2=O)cc(OC)c1OC

>  <Qualitative Label>
inactive

$$$$
>  <Molecule>
COC(=O)C(O)c1ccccc1 (stereo not given)

>  <Qualitative Label>
inactive

$$$$
>  <Molecule>
OCc1ccccc1O

>  <Qualitative Label>
inactive

$$$$
>  <Molecule>
NC[C@@H]1CC[C@@H](N)[C@@H](O[C@H]2[C@H](O)[C@@H](O[C@H]3O[C@H](CO)[C@@H](O)[C@H](N)[C@H]3O)[C@H](N)C[C@@H]2N)O1

>  <Qualitative Label>
inactive

$$$$
>  <Molecule>
O=c1[nH]oc2c1CCNC2

>  <Qualitative Label>
inactive

$$$$
>  <Molecule>
C/C1=C\CCC(=O)C2CC(C)(C)C2CC1 (stereo not given)

>  <Qualitative Label>
inactive

$$$$
>  <Molecule>
CC(=O)OCC(COC(C)=O)OC(C)=O

>  <Qualitative Label>
inactive

$$$$
>  <Molecule>
COc1cc2c(cc1OC)C1Cc3ccc(OC)c(OC)c3CN1CC2 (stereo not given)

>  <Qualitative Label>
inactive

$$$$
>  <Molecule>
COc1cc(-c2coc3cc(OCc4ccccc4)c(OC)c(O)c3c2=O)cc(OCc2ccccc2)c1OC

>  <Qualitative Label>
inactive

$$$$
>  <Molecule>
COC(=O)C(C)c1ccc(C(=O)c2cccs2)cc1 (stereo not given)

>  <Qualitative Label>
inactive

$$$$
>  <Molecule>
C=C1CCC(C2CC(=O)OC2=O)C(=O)CCC2C1CC2(C)C (stereo not given)

>  <Qualitative Label>
inactive

$$$$
>  <Molecule>
COc1ccc2c(c1)O[C@H]1c3ccc(OC)cc3OC[C@@H]21

>  <Qualitative Label>
active

$$$$
>  <Molecule>
O=C1CC2OCC=C3CN4CC[C@]56c7ccccc7N1C5[C@H]2[C@H]3CC46 (stereo not given in full)

>  <Qualitative Label>
inactive

$$$$
>  <Molecule>
COc1ccc2c(c1OC)C(=O)OC2[C@H]1c2c(cc3c(c2OC)OCO3)CCN1C (stereo not given in full)

>  <Qualitative Label>
inactive

$$$$
>  <Molecule>
C#CCCCCCCCCCCCC(O)CC(O)COC(C)=O (stereo not given)

>  <Qualitative Label>
active

$$$$
>  <Molecule>
CC1(C)NC(=O)N(c2ccc([N+](=O)[O-])c(C(F)(F)F)c2)C1=O

>  <Qualitative Label>
inactive

$$$$
>  <Molecule>
CO/N=C(\C(=O)N[C@@H]1C(=O)N2C(C(=O)O)=C(COC(C)=O)CS[C@H]12)c1csc(N)n1

>  <Qualitative Label>
inactive

$$$$
>  <Molecule>
O=c1cc[nH]c(=S)[nH]1

>  <Qualitative Label>
inactive

$$$$
>  <Molecule>
CC[C@H](C)C(=O)O[C@H]1CCC=C2C=C[C@H](C)C(CCC3C[C@@H](O)CC(=O)O3)[C@H]21 (stereo not given in full)

>  <Qualitative Label>
active

$$$$
>  <Molecule>
CCNC(=O)CC[C@H](N)C(=O)O

>  <Qualitative Label>
inactive

$$$$
>  <Molecule>
CC1=CC2C(CC1=O)C(C)=CCC2C(C)C (stereo not given)

>  <Qualitative Label>
inactive

$$$$
>  <Molecule>
C=C1CCC(=O)C(C)CCC2C1CC2(C)C (stereo not given)

>  <Qualitative Label>
inactive

$$$$
>  <Molecule>
COc1c(OC)c2occc2c2oc(=O)ccc12

>  <Qualitative Label>
inactive

$$$$
>  <Molecule>
C[N+]1(C)C2CC(OC(=O)[C@@H](CO)c3ccccc3)CC1C1OC12 (stereo not given in full)

>  <Qualitative Label>
inactive

$$$$
>  <Molecule>
CO/N=C(\C(=O)NC1C(=O)N2C(C(=O)O)=C(COC(N)=O)CSC12)c1ccco1 (stereo not given)

>  <Qualitative Label>
active

$$$$
>  <Molecule>
CN1C(C(=O)Nc2ccccn2)=C(O)c2ccccc2S1(=O)=O

>  <Qualitative Label>
inactive

$$$$
>  <Molecule>
Oc1ccc2c(c1)OCC1c3cc4c(cc3OC21)OCO4 (stereo not given)

>  <Qualitative Label>
inactive

$$$$
>  <Molecule>
COC(=O)C[C@H]1C(C)(C)C(=O)[C@@H]2CC3=C(CC[C@]4(C)C3=CC(=O)O[C@H]4c3ccoc3)[C@@]1(C)C2=O

>  <Qualitative Label>
inactive

$$$$
>  <Molecule>
C=C1C(=O)O[C@@H]2C3O[C@]3(C)CC/C=C(\C)CC[C@@H]12 (stereo not given in full)

>  <Qualitative Label>
inactive

$$$$
>  <Molecule>
CCCCCCOc1ccccc1C(N)=O

>  <Qualitative Label>
active

$$$$
>  <Molecule>
COc1cc([C@@H]2c3cc4c(c(O)c3C[C@H]3COC(=O)[C@@H]32)OCO4)cc(OC)c1OC

>  <Qualitative Label>
inactive

$$$$
>  <Molecule>
C=C1C(=O)O[C@@H]2C[C@@]3(C)CCC[C@H](C)C3=C[C@H]12

>  <Qualitative Label>
inactive

$$$$
>  <Molecule>
CC(C(=O)O)c1ccc(C(=O)c2cccs2)cc1 (stereo not given)

>  <Qualitative Label>
inactive

$$$$
>  <Molecule>
CC1(C)O[C@H]2[C@H](O)C[C@](O)(C(N)=O)C[C@H]2O1

>  <Qualitative Label>
inactive

$$$$
>  <Molecule>
C=CCCCCCCCCCCCC(O)CC(O)COC(C)=O (stereo not given) (tested in a mixture with another compound)

>  <Qualitative Label>
active

$$$$
>  <Molecule>
CCCCOC(=O)c1ccccc1C(=O)OCCCC

>  <Qualitative Label>
inactive

$$$$
>  <Molecule>
CC(C)NCC(O)c1cc(O)cc(O)c1 (stereo not given)

>  <Qualitative Label>
inactive

$$$$
>  <Molecule>
CCCCN(CCCC)CCCOC(=O)c1ccc(N)cc1

>  <Qualitative Label>
inactive

$$$$
>  <Molecule>
CC(=O)N[C@@H](CS)C(=O)O

>  <Qualitative Label>
inactive

$$$$
>  <Molecule>
CCCCOC(=O)c1ccc(N)cc1

>  <Qualitative Label>
inactive

$$$$
>  <Molecule>
Nc1ccc(N=Nc2ccccc2)c(N)n1

>  <Qualitative Label>
inactive

$$$$
>  <Molecule>
CC(C)C(C)/C=C/C(C)C1CCC2C3=CC=C4CC(O)CCC4(C)C3CCC21C (stereo not given)

>  <Qualitative Label>
inactive

$$$$
>  <Molecule>
Cc1cc(NC(=O)C2=C(O)c3ccccc3S(=O)(=O)N2C)no1

>  <Qualitative Label>
inactive

$$$$
>  <Molecule>
O=C1OC(c2ccc(O)cc2)(c2ccc(O)cc2)c2ccccc21

>  <Qualitative Label>
inactive

$$$$
